# MEASURED_TARGET: Alkaline phosphatase, tissue-nonspecific isozyme (Homo sapiens)
# EXPERIMENT_SUMMARY: human TNAP enzyme inhibitors, primary screen, biochemical, luminescent, high phosphate acceptor level, uHTS (AID 1135);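 also: plate controls were DMSO wells for no effect and EDTA-quenched wells as full inhibition for full effect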
# RUN_PARAMETERS: purified TNAP, CDP-star luminescence, 1 M DEA; at 20 µM; stronger effect = higher value
Out of some 200,000 compounds screened, about 65 (0.03%) were called active. The entries come from a sample that favours actives as a whole.
ASSAY_METRIC: inhibition (%)
# unit: % | format: bare number

# example entries with known answers
# COMPOUND, ASSAY_METRIC, READOUT_VALUE
records = [
    ("CN(C)S(=O)(=O)c1ccc(N2CCCC2=O)c([N+](=O)[O-])c1", "inhibition", -2.1),
    ("COc1ccc(C)cc1NC(=O)C(Sc1ccccc1)c1ccccc1 (stereo not given)", "inhibition", -3),
    ("Cc1ccc(-c2nc(-c3cccnc3)sc2CC(=O)Nc2ccc(C)c(Cl)c2)cc1", "inhibition", -1.4),
    ("O=C(COc1cc(Cl)c(Cl)cc1Cl)NC(=O)NC1CCCC1", "inhibition", 0.7),
]

Then this compound:
Dear colleague, I am looking for the recorded inhibition of the following compound: Cc1ccc2[nH]c(=O)c(CN(CC3COCCO3)C(=O)Nc3ccccc3C)cc2c1 (stereo not given)
-4.6
